# Test target: Renin (Homo sapiens)
# Sequence (P00797 whole entry): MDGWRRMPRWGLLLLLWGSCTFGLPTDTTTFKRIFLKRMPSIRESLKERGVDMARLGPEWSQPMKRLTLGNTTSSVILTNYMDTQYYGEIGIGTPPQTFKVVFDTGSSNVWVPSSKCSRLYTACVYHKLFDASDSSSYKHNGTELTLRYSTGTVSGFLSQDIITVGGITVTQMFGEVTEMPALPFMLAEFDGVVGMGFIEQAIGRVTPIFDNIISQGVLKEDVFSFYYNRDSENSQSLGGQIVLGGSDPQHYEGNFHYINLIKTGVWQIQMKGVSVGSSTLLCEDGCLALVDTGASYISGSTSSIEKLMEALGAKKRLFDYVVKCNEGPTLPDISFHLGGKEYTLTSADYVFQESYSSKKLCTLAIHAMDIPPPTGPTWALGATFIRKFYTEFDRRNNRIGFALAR
# Procedure text: In vitro inhibitory activity against human plasma renin
# Format: cell-free
pIC50: −log10 of the molar value. Non-standard residues stand in square brackets, D forms with d. Residues, ends and D or L forms follow the SMILES beside them. *: point of attachment. Ala(1-Adamantyl) = N[C@@H](CC12CC3CC(CC(C3)C1)C2)C(=O)O; Sta = CC(C)C[C@H](N)[C@@H](O)CC(=O)O; Adoc = O=C(OC12CC3CC(CC(C3)C1)C2)*; X1 = CC(C)(C)OC(=O)NCCS(=O)(=O)*; Nle = CCCC[C@H](N)C(=O)O; Nva = CCC[C@H](N)C(=O)O; Cbz = O=C(OCc1ccccc1)*; Boc = CC(C)(C)OC(=O)*; Moc = COC(=O)*
Endpoint label: pIC50

Check out these entries, answers already filled in.
# Compound, pIC50
measured = [
    ("CCC[C@H](NC(=O)[C@H](Cc1ccccc1)NC(=O)OC)C(=O)N[C@@H](CC(C)C)[C@@H](O)CC(=O)N[C@@H](C)C(=O)N[C@@H](CC(C)C)[C@@H](O)CC(=O)OC (Moc-F[Nva][Sta]A[Sta]-OMe)", 6.59),
    ("CCC[C@H](NC(=O)[C@H](Cc1ccccc1)NC(=O)OC(C)(C)C)C(=O)N[C@@H](CC(C)C)[C@@H](O)CC(=O)N[C@@H](C)C(=O)N[C@@H](CC(C)C)[C@@H](O)CC(=O)OC (Boc-F[Nva][Sta]A[Sta]-OMe)", 7.29),
    ("COC(=O)C[C@H](O)[C@H](CC(C)C)NC(=O)[C@H](C)NC(=O)C[C@H](O)[C@H](CC(C)C)NC(=O)[C@H](Cc1c[nH]cn1)NC(=O)[C@H](CC12CC3CC(CC(C3)C1)C2)NC(=O)OC(C)(C)C (Boc-[Ala(1-Adamantyl)]H[Sta]A[Sta]-OMe)", 6.60),
    ("CCCC[C@H](NC(=O)[C@@H](N)Cc1ccccc1)C(=O)N[C@@H](CC(C)C)[C@@H](O)CC(=O)N[C@@H](C)C(=O)N[C@@H](CC(C)C)[C@@H](O)CC(=O)OC (H-F[Nle][Sta]A[Sta]-OMe)", 5.11),
    ("COC(=O)C[C@H](O)[C@H](CC(C)C)NC(=O)[C@H](C)NC(=O)C[C@H](O)[C@H](CC(C)C)NC(=O)[C@@H]1CCCN1C(=O)[C@H](Cc1ccccc1)NC(=O)OCc1ccccc1 (Cbz-FP[Sta]A[Sta]-OMe)", 5.00),
    ("COC(=O)C[C@H](O)[C@H](CC(C)C)NC(=O)[C@H](C)NC(=O)C[C@H](O)[C@H](CC(C)C)NC(=O)[C@H](Cc1ccccc1)NC(=O)[C@H](Cc1ccccc1)NC(=O)OC12CC3CC(CC(C3)C1)C2 (Adoc-FF[Sta]A[Sta]-OMe)", 5.52),
]

I. COC(=O)C[C@H](O)[C@H](CC(C)C)NC(=O)[C@H](C)NC(=O)C[C@H](O)[C@H](CC(C)C)NC(=O)[C@H](Cc1ccccc1)NC(=O)[C@H](Cc1ccccc1)NS(=O)(=O)CCNC(=O)OC(C)(C)C (X1-FF[Sta]A[Sta]-OMe)
II. COC(=O)C[C@H](O)[C@H](CC(C)C)NC(=O)[C@H](C)NC(=O)C[C@H](O)[C@H](CC(C)C)NC(=O)[C@H](Cc1c[nH]c2ccccc12)NC(=O)[C@H](Cc1ccccc1)NC(=O)OCc1ccccc1 (Cbz-FW[Sta]A[Sta]-OMe)
Exercise: Lab notebook, comparison: I versus II , higher pIC50 goes to which? Selection: enter the item's label.
Key: I
(I: 6.74, II: 5.85)
